studySystem: Casein kinase I isoform delta (Homo sapiens, UniProt P48730)
Sequence (P48730 whole entry, canonical isoform): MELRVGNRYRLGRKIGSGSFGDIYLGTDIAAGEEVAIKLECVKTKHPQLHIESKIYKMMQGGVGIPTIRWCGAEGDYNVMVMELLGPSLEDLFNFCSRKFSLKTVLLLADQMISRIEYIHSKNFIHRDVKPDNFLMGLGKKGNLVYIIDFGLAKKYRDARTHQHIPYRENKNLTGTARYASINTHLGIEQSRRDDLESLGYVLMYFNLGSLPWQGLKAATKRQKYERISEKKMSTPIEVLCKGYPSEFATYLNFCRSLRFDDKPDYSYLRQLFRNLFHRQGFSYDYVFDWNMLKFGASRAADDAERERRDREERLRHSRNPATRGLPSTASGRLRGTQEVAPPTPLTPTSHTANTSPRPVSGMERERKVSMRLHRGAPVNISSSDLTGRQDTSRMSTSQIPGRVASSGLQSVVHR
testSummary: Inhibition of human recombinant CK-1delta using casein as substrate after 60 mins by Kinase-Glo assay
Examples of compounds with documented IC50 follow.
Entry rule: numbers only, all in µM.

Asked: # lookup: IC50 of CCOC(=O)c1sc(NC(=O)CNC(=O)CC(c2ccccc2)c2ccccc2)nc1C
Given back: 3.79

Asked: # lookup: IC50 of O=C(Cc1ccc(Cl)cc1)Nc1nc2ccccc2o1
Given back: 4.11

Asked: # lookup: IC50 of COc1ccc2nc(NC(=O)Cc3cc(OC)c(OC)c(OC)c3)sc2c1
Given back: 1.12

Asked: # lookup: IC50 of CCOC(=O)c1sc(NC(=O)CNC(=O)Cc2ccccc2)nc1C
Given back: 10.1

Asked: # lookup: IC50 of CCOC(=O)c1sc(NC(=O)CNC(=O)c2ccc(N3CCOCC3)cc2)nc1C
Given back: 9.31

Asked: # lookup: IC50 of CC(=O)c1sc(NC(=O)Cc2cccc(Cl)c2)nc1C
Given back: 1.12

Asked: # lookup: IC50 of CCOC(=O)c1sc(NC(=O)CNC(=O)c2ccccc2)nc1C
Given back: 7.45

Asked: # lookup: IC50 of CCOC(=O)c1sc(NC(=O)COCc2ccccc2)nc1C
Given back: 7.38

Asked: # lookup: IC50 of CCOc1ccc2nc(NC(=O)Cc3ccc(Cl)cc3)sc2c1
Given back: 1.11

Asked: # lookup: IC50 of CS(=O)(=O)c1ccc2nc(NC(=O)Cc3cccs3)sc2c1
Given back: 2.69

====

Examples of compounds with documented permeability follow.
assayContext: pampa
Description: Permeability of the compound by PAMPA
Entry rule: numbers only, all in ×10⁻⁶ cm/s.

Solved cases (2 shown):
COc1ccc(CC(=O)Nc2nc3ccc(C(F)(F)F)cc3s2)cc1; 14.6
CNCCCN1c2ccccc2CCc2ccccc21 [DESIPRAMINE]; 14.6

Turning now to a further compound:
Asked: # lookup: permeability of CN(C)CCCN1c2ccccc2Sc2ccccc21 [PROMAZINE]
Given back: 12.7
